Hello, the source for this data is patent US8148532B2, in case you need it.

Biological target: Flt1(h) (Homo sapiens, UniProt P17948)
Construct: purchased Millipore Upstate Ltd
Sequence (P17948 27-1338): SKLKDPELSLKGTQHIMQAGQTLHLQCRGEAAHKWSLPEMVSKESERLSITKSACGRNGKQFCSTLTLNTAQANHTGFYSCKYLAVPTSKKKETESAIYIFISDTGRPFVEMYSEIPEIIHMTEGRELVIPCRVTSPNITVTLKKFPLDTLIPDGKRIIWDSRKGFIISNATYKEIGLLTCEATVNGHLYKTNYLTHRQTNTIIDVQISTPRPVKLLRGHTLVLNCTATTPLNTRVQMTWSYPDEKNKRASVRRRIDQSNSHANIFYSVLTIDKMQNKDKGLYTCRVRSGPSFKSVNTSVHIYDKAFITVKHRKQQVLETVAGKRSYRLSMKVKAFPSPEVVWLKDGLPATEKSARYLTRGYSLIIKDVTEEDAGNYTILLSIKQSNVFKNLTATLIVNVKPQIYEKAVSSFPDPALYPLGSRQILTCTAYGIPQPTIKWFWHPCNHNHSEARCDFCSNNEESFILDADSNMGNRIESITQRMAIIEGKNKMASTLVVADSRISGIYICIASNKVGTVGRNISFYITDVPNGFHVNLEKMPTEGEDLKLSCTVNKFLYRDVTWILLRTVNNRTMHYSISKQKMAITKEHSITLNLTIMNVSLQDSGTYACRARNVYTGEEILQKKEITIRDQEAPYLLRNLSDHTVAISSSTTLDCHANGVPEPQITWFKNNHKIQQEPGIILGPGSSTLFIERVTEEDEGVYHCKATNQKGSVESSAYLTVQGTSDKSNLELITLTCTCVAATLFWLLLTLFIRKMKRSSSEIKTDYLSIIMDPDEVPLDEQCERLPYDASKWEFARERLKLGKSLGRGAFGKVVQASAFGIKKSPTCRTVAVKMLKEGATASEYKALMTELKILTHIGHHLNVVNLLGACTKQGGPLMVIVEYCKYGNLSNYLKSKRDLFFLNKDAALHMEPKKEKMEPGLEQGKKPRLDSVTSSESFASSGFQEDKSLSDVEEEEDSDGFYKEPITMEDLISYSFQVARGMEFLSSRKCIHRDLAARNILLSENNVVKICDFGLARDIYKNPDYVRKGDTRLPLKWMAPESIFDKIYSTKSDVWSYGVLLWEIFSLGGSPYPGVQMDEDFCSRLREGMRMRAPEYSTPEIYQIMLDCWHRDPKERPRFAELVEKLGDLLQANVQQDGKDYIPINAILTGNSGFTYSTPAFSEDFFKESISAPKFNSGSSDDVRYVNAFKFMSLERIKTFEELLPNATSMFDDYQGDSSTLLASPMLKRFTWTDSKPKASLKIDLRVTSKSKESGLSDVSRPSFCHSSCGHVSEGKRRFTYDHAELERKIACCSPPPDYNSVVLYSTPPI
Assay: in vitro tyrosine kinase inhibition, Flt1(h)
Type: biochemical
Description: Several in vitro tyrosine kinase inhibition activities can be measured according to the description in Rewcastle, G W, J. Med. Chem. 1996, 39, 918-928 and Edwards M, International Biotechnology Lab 5 (3), 19-25, 1987. Oncogene, 1990, 5: 519-524. The Baculovirus Expression System: A Laboratory Guide, L. A. King 1992. Sambrook et al, 1989, Molecular cloning—A Laboratory Manual, 2nd edition, Cold Spring Harbour Laboratory Press. […]
pIC50: −log10 of the molar value.

# smilesRecord, pIC50
measured = [
    ("COc1cc2c(Oc3ccc4[nH]c(C)cc4c3F)ccnc2cc1OCC1(N)CC1", 8.40),
]
